# target_entity: Melanin-concentrating hormone receptor 1 (Rattus norvegicus)
# Sequence (P97639 whole entry): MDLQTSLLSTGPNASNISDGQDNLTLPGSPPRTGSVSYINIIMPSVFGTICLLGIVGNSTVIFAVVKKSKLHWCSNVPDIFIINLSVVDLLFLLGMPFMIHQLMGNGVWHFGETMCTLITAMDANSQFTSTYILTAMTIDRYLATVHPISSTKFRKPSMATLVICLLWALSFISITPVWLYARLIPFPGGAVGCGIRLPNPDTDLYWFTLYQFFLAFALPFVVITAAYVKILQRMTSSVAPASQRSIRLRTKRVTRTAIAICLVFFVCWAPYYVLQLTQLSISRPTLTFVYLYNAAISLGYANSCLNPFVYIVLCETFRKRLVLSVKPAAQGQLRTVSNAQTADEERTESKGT
# protocol_text: Binding affinity to rat MCH1 receptor
Task for the reader: assign each of the following molecules its reported pKi.
Numbers only, as −log10 of the molar value.

>>> recorded_number("O=C(Cc1csc2ccccc12)NC[C@H]1CCCN1Cc1ccc(Cl)c(Cl)c1")
5.01

Next:
What value of measured pKi is listed for O=C(Cc1csc2ccccc12)NC1CCN(Cc2ccc(Cl)c(Cl)c2)C1 (stereo not drawn) ?
6.44

----------
Read-out record for Melanin-concentrating hormone receptor 1 (Rattus norvegicus, UniProt P97639): Ki
Answers are plain numbers, in nM.

Below: 2 molecules and their reported Ki.
>>> recorded_number("O=C(Cc1ccccc1)NC1CCN(Cc2ccc(Cl)c(Cl)c2)C1 (stereo not given)")
980
>>> recorded_number("O=C(CCCc1ccccc1)NC[C@H]1CCCN1CCc1ccccc1")
3100

// fetch Melanin-concentrating hormone receptor 1 (Rattus norvegicus, UniProt P97639) Ki for COCC1=C(C(=O)OC)[C@H](c2ccc(F)c(F)c2)N(C(=O)NCCCN2CCC(c3cccc(NC(C)=O)c3)CC2)C(=O)N1 [SNAP-7941]
2
